# credit: patent US20160193316A1

Target: DRB4*0101 (DRw53) (Homo sapiens, UniProt P01903+P13762, G164S)
Construct: expressed in transfected cells; host or cells: L257.6 (fibroblasts)
Experiment: HLA class II peptide binding assay (pH 5.0)
Settings: Table XIXb; DRw53
Consider the cut-off -0.0005. If the recorded DRw53 binding data is strictly smaller, the label is True; if not, the label is False.

> print(dat)
    sequence  class.label
1  LTDGIPDSI        False
2  LTMSNVKNV        False
3  LAMKLIQQL        False
4  WVNHAVPLA        False
5  FMKAVCVEV        False
6  YQNNIVDEI        False
7  VHDLISDMI        False
8  YLLMDCSGS         True
9  WDEWSPCSV         True

---

Molecular target: DRB1*1101 (DR5w11) (Homo sapiens, UniProt P01903+P01911, A100R/A169T/A87E/I96F/K41T/L162R/M171V/P40S/Q125H/Q178H/Q39Y/Q99D/R42S/S66Y/T262R/V115G/W38E)
Construct: endogenous in cells; host or cells: Sweig
Sequence (P01903 26-254, other chains not shown): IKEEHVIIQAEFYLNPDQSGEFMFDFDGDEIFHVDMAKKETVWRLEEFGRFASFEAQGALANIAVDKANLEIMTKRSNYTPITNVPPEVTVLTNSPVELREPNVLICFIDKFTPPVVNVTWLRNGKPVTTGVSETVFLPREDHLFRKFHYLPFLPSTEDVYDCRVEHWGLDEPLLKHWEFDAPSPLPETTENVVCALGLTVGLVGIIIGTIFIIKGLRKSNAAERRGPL
Test: biochemical
Format: binding
Listing: DR5w11 binding information of selected sequences
outcome measure: DR5w11 binding information

> print(dat)
     sequence  assay.result
 1  LNKEGKLIE       -0.0005
 2  VEVEKTASC        0.0003
 3  IKNSEKDEI       -0.0003
 4  LYADSAWEN       -0.0006
 5  ILTDGIPDS       -0.0004
 6  VCNDEVDLY        0.0001
 7  VWDEWSPCS       -0.0002
 8  INRENANQL       -0.0004
 9  IQDSLKESR       -0.0006
10  IVDELSEDI       -0.0002
11  LLMDCSGSI       -0.0002

---

Molecular target: DRB1*0101 (DR1) (Homo sapiens, UniProt P01903+P01911, A100R/D57E/F55L/F60I/F76Y/I96L/L162R/M171V/P40L/Q125E/R42F/V115G/Y59C)
Construct: endogenous in cells; host or cells: LG2
Sequence (P01903 26-254 partner, other chains not shown): as the sequence (P01903 26-254, other chains not shown) above
Assay: HLA class II peptide binding assay
Details: DR3a motif peptides; unit not given; exemplary 15-mer containing the core sequence
Reported DR1 binding information is given for each of the following sequences.
outcome measure: DR1 binding information

> print(dat)
    sequence  assay.result
1  VEVEKTASC        0.0001
2  IVDELSEDI        0.0001
3  VWDEWSPCS        0.0001
4  LYADSAWEN        0.0002
5  INRENANQL        0.0770
6  VCNDEVDLY        0.0003
7  ILTDGIPDS        0.0002
8  LLMDCSGSI        0.0041

---

Target: DRB1*0802 (DR8w2) (Homo sapiens, UniProt P01903+P01911, A100R/A103L/A169T/F76Y/H45Y/I96F/K41T/L162R/M171V/P40S/Q125H/Q178H/Q39Y/Q99D/R218S/R42G/S66Y/V115G/W38E)
Construct: endogenous in cells; host or cells: OLL
Experiment: biochemical
Type: binding
Param threshold (-0.0003) applies to DR8w2 binding information; output satisfied when value >= threshold, not satisfied when value < threshold.

> print(dat)
    sequence    class.label
1  LNKEGKLIE  not satisfied
2  LYADSAWEN  not satisfied
3  IKNSEKDEI  not satisfied
4  VEVEKTASC      satisfied
5  LLMDCSGSI      satisfied
6  IQDSLKESR      satisfied

---

Target: DRB1*0301 (DR3) (Homo sapiens, UniProt P01903+P01911, A100K/A102G/A103R/A169T/F55Y/I96L/K41T/L162R/M171V/P40S/Q125H/Q178H/Q39Y/R42S/S66N/T106N/T262R/W38E/Y61H)
Construct: endogenous in cells; host or cells: MAT
Assay: HLA class II peptide binding assay (pH 4.5)
Conditions: DR3a motif peptides; unit not given; exemplary 15-mer containing the core sequence
outcome measure: DR3 binding information

> print(dat)
     sequence          outcome.measure  assay.result
 1  LPSENERGY  DR3 binding information       -0.0033
 2  IVDELSEDI  DR3 binding information       -0.0041
 3  LSEEKIKKG  DR3 binding information       -0.0033
 4  LEQDRLAKE  DR3 binding information        0.0038
 5  VTPEQPQGD  DR3 binding information       -0.0033
 6  YREEVCNDE  DR3 binding information       -0.0033
 7  IKKEEELVE  DR3 binding information       -0.0033
 8  VNKEKEKFI  DR3 binding information       -0.0033
 9  LHSDASKNK  DR3 binding information       -0.0033
10  VWDEWSPCS  DR3 binding information       -0.0041
11  FQDEENIGI  DR3 binding information       -0.0033

---

Molecular target: DRB1*0101 (DR1) (Homo sapiens, UniProt P01903+P01911, A100R/D57E/F55L/F60I/F76Y/I96L/L162R/M171V/P40L/Q125E/R42F/V115G/Y59C)
Construct: endogenous in cells; host or cells: LG2
Assay: HLA class II peptide binding assay
Conditions: read-out: Binding capacity (IC50 nM) DR1; DR1
No end group written: not given here.
outcome measure: IC50

> print(dat)
                            sequence  assay.result
1  PDSIQDSLKESRKLN [Peptide 35.0171]    > 20000 nM

---

Biological target: DRB1*1101 (DR5w11) (Homo sapiens, UniProt P01903+P01911, A100R/A169T/A87E/I96F/K41T/L162R/M171V/P40S/Q125H/Q178H/Q39Y/Q99D/R42S/S66Y/T262R/V115G/W38E)
Construct: endogenous in cells; host or cells: Sweig
Experiment: biochemical
Format: binding
outcome measure: DR5w11 binding data

> print(dat)
     sequence  assay.result
 1  VSTVLLGGV       -0.0002
 2  YQNNIVDEI       -0.0004
 3  IQNHTLETV       -0.0002
 4  LTDGIPDSI       -0.0004
 5  LETVNISDV       -0.0002
 6  LAILSVSSF        0.0370
 7  LAMKLIQQL        0.0002
 8  LEEKAAKET       -0.0002
 9  VHDLISDMI        0.0037
10  YDNAGINLY       -0.0002
11  LGGVGLVLY       -0.0062
12  FMKAVCVEV       -0.0004
13  FQEYQCYGS       -0.0002
14  LATSVLAGL        0.0210
15  FYFILVNLL        0.0011
16  VNDFQISKY       -0.0002
17  LHEGCTSEL       -0.0002
18  WVNHAVPLA        0.0079
19  LGNVSTVLL        0.0005
20  YGRLEIPAI       -0.0002
21  YLLMDCSGS       -0.0004

---

Molecular target: HLA-A*3301 (Homo sapiens, UniProt P04439, A270S/D185E/E176V/E277Q/E87N/F33T/G231S/H175R/I121M/I218V/I322F/K168Q/K210R/L300P/L318F/M331R/P217A/Q86R/Q94H/R138Q/T323A/T345S/T97I/V358M/Y195H)
Assay: HLA class I peptide binding assay
No end group written: not given here.
outcome measure: IC50 (µM)

> print(dat)
                       sequence  outcome.measure  units.symbol  assay.result
1  FILVNLLIFH [Peptide 1167.46]             IC50            µM         0.397

---

Collected DR4w4 binding data values appear next to each entry.
Molecular target: DRB1*0401 (DR4w4) (Homo sapiens, UniProt P01903+P01911, A100K/A169T/F76Y/I96L/K127E/L162R/M171V/N62H/P40V/Q125Y/R42H/S133A/S149N/S66Y/V115G/V209L/W38E)
Construct: endogenous in cells; host or cells: Preiss
Sequence (P01903 26-254 partner, other chains not shown): as the sequence (P01903 26-254, other chains not shown) above
Test: HLA class II peptide binding assay
Settings: Table XIXb; DR4w4
outcome measure: DR4w4 binding data

> print(dat)
    sequence     outcome.measure  assay.result
1  IQNHTLETV  DR4w4 binding data       -0.0007
2  IAGGLALLA  DR4w4 binding data        0.0014
3  LALFFIIFN  DR4w4 binding data        0.0047
4  LALLACAGL  DR4w4 binding data       -0.0007
